- TEST METHOD NOTES: in vitro
- Format: cell-based, mouse
- EXPERIMENTAL PARAMETERS: mouse
- Source text: For selected compounds, 6a–6f, we performed a determination of the cytotoxicity in a wider variety of cancer and non-cancerous cell lines (see Table S2, Supplementary Materials) in order to learn the characteristic features of selectivity or the similarity of biological properties. […]
METRIC: IC50 at 72 h (µg/mL)
Entry rule: numbers only, all in µg/mL.

Data request, read-out IC50 at 72 h, for CCCCCCCCCCCCCCCC[n+]1ccc(C=CC=Cc2ccc(OC)cc2)cc1.[Br-] [Compound 6c]
0.24

---

- TEST METHOD NOTES: Excitation/emission fluorescence spectra
- Assay type: physicochemical
- EXPERIMENTAL PARAMETERS: DMSO solution, excitation giving maximum fluorescence intensity
excitation λ, nm values by entry
Entry rule: numbers only, all in nm.

Some molecules with known excitation λ, nm results, for comparison:
{"MOLECULE": "CCCCCCCCCCCC[n+]1ccc(C=Cc2cc3c4c(c2)CCCN4CCC3)cc1.[Br-] [Compound 6d]", "METRIC": "excitation λ, nm", "READOUT NUMBER": 530}
{"MOLECULE": "CCCCCCCCCCCCCCCC[n+]1ccc(C=CC=Cc2cc3c4c(c2)CCCN4CCC3)cc1.[Br-] [Compound 6e]", "METRIC": "excitation λ, nm", "READOUT NUMBER": 530}
{"MOLECULE": "CCCCCCCCCCCCCCCC[n+]1ccc(C=Cc2cc(OC)c(OC)c(OC)c2)cc1.[Br-] [Compound 6b]", "METRIC": "excitation λ, nm", "READOUT NUMBER": 380}
{"MOLECULE": "CCCCCCCCCCCC[n+]1ccc(C=Cc2cc(OC)c(OC)c(OC)c2)cc1.[Br-] [Compound 6a]", "METRIC": "excitation λ, nm", "READOUT NUMBER": 380}
{"MOLECULE": "C(=C\\c1cc2c3c(c1)CCCN3CCC2)/c1cc[n+](CCC[n+]2ccc(/C=C/c3cc4c5c(c3)CCCN5CCC4)cc2)cc1 [Compound 7a]", "METRIC": "excitation λ, nm", "READOUT NUMBER": 530}

Data request, read-out excitation λ, nm, for CCCCCCCCCCCCCCCC[n+]1ccc(C=CC=Cc2ccc(OC)cc2)cc1.[Br-] [Compound 6c]
530

Data request, read-out excitation λ, nm, for C(C=Cc1cc2c3c(c1)CCCN3CCC2)=Cc1cc[n+](CCC[n+]2ccc(C=CC=Cc3cc4c5c(c3)CCCN5CCC4)cc2)cc1.[Br-].[Br-] [Compound 7b]
530

---

- TEST METHOD NOTES: MTT cytotoxicity assay, BHK-21
- Format: cell-based, Syrian hamster
- EXPERIMENTAL PARAMETERS: Syrian hamster; non-cancerous cell line, MTT, 72 h; read-out: Cytotoxicity IC50 BHK-21
METRIC: IC50 at 72 h (µg/mL)
Entry rule: numbers only, all in µg/mL.

Data request, read-out IC50 at 72 h, for CCCCCCCCCCCC[n+]1ccc(C=Cc2cc(OC)c(OC)c(OC)c2)cc1.[Br-]
1.01

---

- TEST METHOD NOTES: Basal cytotoxicity, neutral red uptake (NRU) assay, with LD50 estimated from IC50
- Type: cell-based
- EXPERIMENTAL PARAMETERS: mouse; estimated from in vitro NRU IC50 (24 h) by log LD50 = 0.439 x log IC50 + 0.621; read-out: Basal Cytotoxicity (NIH3T3) LD50
LD50 at 24 h less than 200 mg/kg is true (1); LD50 at 24 h greater than or equal to 200 mg/kg is false (0).

Some entries whose results are on file:
{"SAMPLE SMILES": "CCCCCCCCCCCCCCCC[n+]1ccc(C=CC=Cc2cc3c4c(c2)CCCN4CCC3)cc1.[Br-]", "ASSIGNED LABEL": "false (0)"}
{"SAMPLE SMILES": "CCCCCCCCCCCC[n+]1ccc(C=Cc2cc3c4c(c2)CCCN4CCC3)cc1.[Br-]", "ASSIGNED LABEL": "true (1)"}
{"SAMPLE SMILES": "CCCCCCCCCCCCCCCC[n+]1ccc(C=CC=Cc2ccc(OC)cc2)cc1.[Br-]", "ASSIGNED LABEL": "true (1)"}
{"SAMPLE SMILES": "C(=C\\c1cc2c3c(c1)CCCN3CCC2)/c1cc[n+](CCC[n+]2ccc(/C=C/c3cc4c5c(c3)CCCN5CCC4)cc2)cc1", "ASSIGNED LABEL": "false (0)"}

is_below(LD50 at 24 h, 200 mg/kg) for C(C=Cc1cc2c3c(c1)CCCN3CCC2)=Cc1cc[n+](CCC[n+]2ccc(C=CC=Cc3cc4c5c(c3)CCCN5CCC4)cc2)cc1.[Br-].[Br-] ?
false (0)

---

- TEST METHOD NOTES: MTT cytotoxicity assay, BHK-21
- Format: cell-based, Syrian hamster
- EXPERIMENTAL PARAMETERS: Syrian hamster
IC50 at 72 h values by entry
# number then unit; no other words

Some molecules with known IC50 at 72 h results, for comparison:
{"MOLECULE": "CCCCCCCCCCCC[n+]1ccc(C=Cc2cc3c4c(c2)CCCN4CCC3)cc1.[Br-] [Compound 6d]", "IC50 at 72 h": "0.082 µg/mL"}
{"MOLECULE": "CCCCCCCCCCCCCCCC[n+]1ccc(C=CC=Cc2ccc(OC)cc2)cc1.[Br-] [Compound 6c]", "IC50 at 72 h": "0.35 µg/mL"}

// switching to the query molecule
Data request, read-out IC50 at 72 h, for CCCCCCCCCCCCCCCC[n+]1ccc(C=CC=Cc2cc3c4c(c2)CCCN4CCC3)cc1.[Br-] [Compound 6e]
2.7 µg/mL

---

- TEST METHOD NOTES: Basal cytotoxicity, neutral red uptake (NRU) assay, with LD50 estimated from IC50
- Assay type: cell-based
- EXPERIMENTAL PARAMETERS: mouse, NIH3T3 cells; estimated from in vitro NRU IC50 (24 h) by log LD50 = 0.439 x log IC50 + 0.621; read-out: Basal Cytotoxicity (NIH3T3) LD50
METRIC: LD50 at 24 h (mg/kg)
Entry rule: numbers only, all in mg/kg.

Data request, read-out LD50 at 24 h, for CCCCCCCCCCCC[n+]1ccc(C=Cc2cc(OC)c(OC)c(OC)c2)cc1.[Br-]
249

---

- TEST METHOD NOTES: Excitation/emission fluorescence spectra
- Assay type: physicochemical
- EXPERIMENTAL PARAMETERS: DMSO solution
fluor. max. λ, nm values by entry
Entry rule: numbers only, all in nm.

Data request, read-out fluor. max. λ, nm, for CCCCCCCCCCCC[n+]1ccc(C=Cc2cc(OC)c(OC)c(OC)c2)cc1.[Br-]
580

Data request, read-out fluor. max. λ, nm, for CCCCCCCCCCCCCCCC[n+]1ccc(C=Cc2cc(OC)c(OC)c(OC)c2)cc1.[Br-]
580

Data request, read-out fluor. max. λ, nm, for C(=C\c1cc2c3c(c1)CCCN3CCC2)/c1cc[n+](CCC[n+]2ccc(/C=C/c3cc4c5c(c3)CCCN5CCC4)cc2)cc1
660

Data request, read-out fluor. max. λ, nm, for CCCCCCCCCCCC[n+]1ccc(C=Cc2cc3c4c(c2)CCCN4CCC3)cc1.[Br-]
660
